Target: T1, human GIP receptor (human, UniProt P48546 22-466)
T1 sequence (looked up): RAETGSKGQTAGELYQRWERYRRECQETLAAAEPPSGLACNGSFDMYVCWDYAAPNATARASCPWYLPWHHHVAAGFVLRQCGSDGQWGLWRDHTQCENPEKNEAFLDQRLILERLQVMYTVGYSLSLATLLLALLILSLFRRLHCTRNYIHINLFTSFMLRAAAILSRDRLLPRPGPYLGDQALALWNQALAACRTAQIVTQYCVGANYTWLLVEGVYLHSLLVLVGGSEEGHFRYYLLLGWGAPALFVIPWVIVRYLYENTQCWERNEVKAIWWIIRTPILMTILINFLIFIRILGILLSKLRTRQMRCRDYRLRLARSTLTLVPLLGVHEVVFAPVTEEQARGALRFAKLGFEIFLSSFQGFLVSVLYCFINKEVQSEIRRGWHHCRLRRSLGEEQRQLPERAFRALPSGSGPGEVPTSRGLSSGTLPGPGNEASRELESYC
Assay: cell-based or functional assay
Bridges are numbered along the chain shown (N, C = ends). Where no end group is shown, it is not given here. [ ]: non-standard residue; d: D form. The star is where a group is joined. Acetyl(2-(4-imidazolyl)) = O=C(Cc1c[nH]cn1)*; Aib = CC(C)(N)C(=O)O
observable: In vitro activity relative to native peptide (%) vs. GIP

Example entries begin here.
| binder | obsValue |
| --- | --- |
| {Acetyl(2-(4-imidazolyl))}-[Aib]QGTFTSDYSIAMDEIHQKDFVNWLLNTC (bridge 15-19) [triple agonist of SEQ ID NO: 87] | < 0.1% |
| Y[Aib]QGTFTSDYSKYLDEKRAKDFVQWLLDHHPSSGQPPPSC (bridge 16-20) [triple agonist of SEQ ID NO: 76] | 11.7% |

Okay, now this binder:
**Query** Identify measured In vitro activity relative to native peptide (%) vs. GIP corresponding to H[Aib]QGTFTSDYSKYLDEKRQKEFVQWLLNTC (bridge 16-20) [triple agonist of SEQ ID NO: 51]
**Result** 0.1%
